Reference source: ChEMBL document CHEMBL1201862

In this section we review reported GI50 values for a set of molecules.
system: KM-20L2; assay: NCI tumour cell line growth inhibition, 48 h
The source made the active and inactive calls. No stated cut-off is given here; in the data, active = GI50 up to about 1.1 µM and inactive = higher.

{"Molecule": "O=C(CCc1cc(-c2ccc(F)cc2)n[nH]1)N(Cc1ccccc1)Cc1ccccc1", "GI50": "> 100 µM (inactive)"}
{"Molecule": "O=C1CC[C@@H](S(=O)(=O)c2ccccc2)[C@H](/C=C/c2ccccc2)O1", "GI50": "> 10 µM (inactive)"}
{"Molecule": "CCOc1ccc2nc(NC(=O)c3c/c(=N\\NC(=O)C[N+](C)(C)C)c4ccc(O)cc4o3)sc2c1", "GI50": "3.21 µM (inactive)"}
{"Molecule": "CC1Cc2c(N)nc(NN)nc2NC1=O (stereo not given)", "GI50": "> 100 µM (inactive)"}
{"Molecule": "C[Si](C)(C)C(Sc1ccccc1)(Sc1ccccc1)Sc1ccccc1", "GI50": "67.1 µM (inactive)"}
